System: Monocotyledonous and dicotyledonous test plants
Assay: Herbicidal action before emergence of the plants (pre-emergence action), greenhouse pot test, 9-level rating after 4 weeks
Type: in vivo
Settings: Abutilon, 250 g/ha, rated after 4 weeks, 9-level scale
REPORTED ENDPOINT: Pre-emergence action rating, Abutilon

Examples from the recorded data:
[
  {
    "COMPOUND": "CC(=O)OCc1nc(C(F)(F)F)ccc1C(=O)C1=C([O-])C2CCC(C2)C1=O.[K+] (stereo not drawn)",
    "Pre-emergence action rating, Abutilon": 1
  },
  {
    "COMPOUND": "COCCOCc1nc(C(F)(F)F)ccc1C(=O)C1=C(O)CCCC1=O",
    "Pre-emergence action rating, Abutilon": 1
  },
  {
    "COMPOUND": "O=C(C1=C(O)C2CCC(C2)C1=O)c1ccc(C(F)(F)F)nc1COCC1COCO1 (stereo not drawn)",
    "Pre-emergence action rating, Abutilon": 4
  },
  {
    "COMPOUND": "O=C(C1=C(O)C2CCC(C2)C1=O)c1ccc(C(F)(F)F)nc1COCC(F)(F)F (stereo not drawn)",
    "Pre-emergence action rating, Abutilon": 1
  },
  {
    "COMPOUND": "O=C(C1=C(O)C2CCC(C2)C1=O)c1ccc(C(F)(F)F)nc1COCCOC1CCCCO1 (stereo not drawn)",
    "Pre-emergence action rating, Abutilon": 2
  }
]

(Q) What Pre-emergence action rating, Abutilon value was documented for this compound, CCOCCOCc1nc(C(F)(F)F)ccc1C(=O)C1=C(O)C2CCC(C2)C1=O (stereo not drawn) ?
(A) 1
